Recorded measurements of log10(IC50), one per entry
# Assayed system: EGFR L858R/T790M/C797S (Homo sapiens, UniProt P00533, C797S/L858R/T790M)
# Sequence (P00533 25-1210 T790M/C797S/L858R): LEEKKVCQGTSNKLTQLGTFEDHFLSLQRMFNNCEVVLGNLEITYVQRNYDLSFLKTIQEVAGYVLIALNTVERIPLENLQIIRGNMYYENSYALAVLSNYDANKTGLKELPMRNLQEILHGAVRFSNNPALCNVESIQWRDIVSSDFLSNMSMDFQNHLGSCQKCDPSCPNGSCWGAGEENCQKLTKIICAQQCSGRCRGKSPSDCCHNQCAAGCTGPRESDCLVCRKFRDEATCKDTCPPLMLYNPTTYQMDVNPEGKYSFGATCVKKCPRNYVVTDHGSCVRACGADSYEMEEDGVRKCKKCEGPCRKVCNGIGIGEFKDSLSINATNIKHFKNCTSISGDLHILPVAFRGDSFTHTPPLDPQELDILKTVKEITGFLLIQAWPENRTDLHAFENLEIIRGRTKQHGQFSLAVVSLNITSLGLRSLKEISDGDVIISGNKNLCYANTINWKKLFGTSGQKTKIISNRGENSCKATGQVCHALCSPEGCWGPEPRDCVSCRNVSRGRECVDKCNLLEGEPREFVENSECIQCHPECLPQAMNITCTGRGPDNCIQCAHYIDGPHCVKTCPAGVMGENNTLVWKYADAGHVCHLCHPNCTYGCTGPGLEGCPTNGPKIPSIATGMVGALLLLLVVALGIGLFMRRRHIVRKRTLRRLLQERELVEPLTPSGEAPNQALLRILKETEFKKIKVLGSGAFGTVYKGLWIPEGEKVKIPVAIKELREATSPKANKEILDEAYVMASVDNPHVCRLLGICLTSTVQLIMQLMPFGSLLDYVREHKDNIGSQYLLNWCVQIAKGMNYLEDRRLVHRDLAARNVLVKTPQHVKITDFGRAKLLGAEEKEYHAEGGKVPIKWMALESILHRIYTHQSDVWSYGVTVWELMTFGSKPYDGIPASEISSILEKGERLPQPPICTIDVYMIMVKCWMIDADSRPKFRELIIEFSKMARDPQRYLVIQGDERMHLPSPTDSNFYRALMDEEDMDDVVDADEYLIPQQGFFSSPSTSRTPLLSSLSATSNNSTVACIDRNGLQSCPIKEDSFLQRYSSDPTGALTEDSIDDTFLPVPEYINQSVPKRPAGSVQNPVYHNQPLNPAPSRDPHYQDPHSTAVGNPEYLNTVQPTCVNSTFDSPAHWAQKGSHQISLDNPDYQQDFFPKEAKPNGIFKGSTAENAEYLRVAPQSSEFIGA
# Protocol notes: Biochemical EGFR kinase inhibition assay (Lance Ultra TR-FRET), triple mutant L858R/T790M/C797S
# Condition summary: ATP at Km; read-out: IC50 L858R/T790M/C797S (nM), Km ATP
Counter-ions that a name gives are not always drawn.
Heads up, the numbers here are log10 of IC50 in nM units.

Please review the following examples before continuing.
>>> assay_result("CC1(CO)CCN(c2cc(Nc3ccnc(-c4cnn(S(=O)(=O)C5CC5)c4)n3)ncc2C#Cc2cnn(CC3CCOC3)c2)CC1 (stereo not drawn)")
-0.40
>>> assay_result("CN(C)CC1(F)CCN(c2cc(Nc3ccnc(-c4cnn(S(=O)(=O)C5CC5)c4)n3)ncc2C#Cc2cnn(C)c2)CC1 [Example 293, formate]")
-1.52
>>> assay_result("CC1(CO)CCN(c2cc(Nc3ccnc(-c4cnn(S(=O)(=O)C5CC5)c4)n3)ncc2C#CC2CCCC2)CC1")
0.15
>>> assay_result("CC1(CO)CCN(c2cc(Nc3ccnc(-c4cnn(S(=O)(=O)C5CC5)c4)n3)ncc2C#Cc2cnn(CC3CCCOC3)c2)CC1 (stereo not drawn)")
-0.10
>>> assay_result("O=S(=O)(C1CC1)n1cc(-c2nccc(Nc3cc(N[C@H]4CC[C@@H](CO)CC4)c(C#Cc4cnn(CC(F)F)c4)cn3)n2)cn1")
-0.70

Please turn your attention to the following entry.
Any idea what its log10(IC50) is? The compound is `CC1(CO)CCN(c2cc(Nc3ccnc(-c4cnn(S(=O)(=O)C5CC5)c4)n3)ncc2C#Cc2ccc(CN3CCOCC3)cc2)CC1`
0.49

====

# Assayed system: EGFR L858R/T790M/C797S (Homo sapiens, UniProt P00533, C797S/L858R/T790M)
# Protocol notes: Biochemical EGFR kinase inhibition assay (Lance Ultra TR-FRET), triple mutant L858R/T790M/C797S
# Condition summary: IC50 L858R/T790M/C797S (nM), 100 μM ATP
Outcome measure: IC50 (nM)
Write the value in nM as a bare number.

Please review the following examples before continuing.
>>> assay_result("O=S(=O)(C1CC1)N1CCC(C#Cc2cnc(Nc3ccnc(-c4cnn(S(=O)(=O)C5CC5)c4)n3)cc2NC2CCC(CO)CC2)C1 (stereo not drawn)")
1.2
>>> assay_result("CC1(O)CC2(CCN(c3cc(Nc4ccnc(-c5cnn(S(=O)(=O)C6CC6)c5)n4)ncc3C#Cc3cnn(CC(F)(F)F)c3)CC2)C1")
1.7
>>> assay_result("O=S(=O)(C1CC1)n1cc(-c2nccc(Nc3cc(N[C@H]4CC[C@@H](O)CC4)c(C#CC4C[C@@H]5CC[C@@H]4O5)cn3)n2)cn1 (stereo partly drawn)")
0.3

Request - read-out IC50 | tested on EGFR L858R/T790M/C797S (Homo sapiens, UniProt P00533, C797S/L858R/T790M) | molecule `O=S(=O)(C1CC1)n1cc(-c2nccc(Nc3cc(N4CCC(F)(CO)CC4)c(C#Cc4cnn(C(F)(F)F)c4)cn3)n2)cn1`
0.5

Request - read-out IC50 | tested on EGFR L858R/T790M/C797S (Homo sapiens, UniProt P00533, C797S/L858R/T790M) | molecule `CN(C)C[C@H]1CC[C@H](COc2cc(Nc3ccnc(-c4cnn(S(=O)(=O)C5CC5)c4)n3)ncc2C#Cc2cnn(C)c2)CC1`
0.5

Request - read-out IC50 | tested on EGFR L858R/T790M/C797S (Homo sapiens, UniProt P00533, C797S/L858R/T790M) | molecule `Cn1cc(C#Cc2cnc(Nc3ccnc(-c4cnn(S(=O)(=O)C5CC5)c4)n3)cc2N2CCC3(CC2)CC(C)(O)C3)cn1`
1.1
